List of EC50 values.
Molecular target: T1, Human Siglec-15 overexpressed on HEK293T cells (HEK293T-hu-S15) (human, UniProt Q6ZMC9 20-328)
T1 construct: whole, on cells; also called HEK293T-hu-S15 cell line
T1 sequence (looked up): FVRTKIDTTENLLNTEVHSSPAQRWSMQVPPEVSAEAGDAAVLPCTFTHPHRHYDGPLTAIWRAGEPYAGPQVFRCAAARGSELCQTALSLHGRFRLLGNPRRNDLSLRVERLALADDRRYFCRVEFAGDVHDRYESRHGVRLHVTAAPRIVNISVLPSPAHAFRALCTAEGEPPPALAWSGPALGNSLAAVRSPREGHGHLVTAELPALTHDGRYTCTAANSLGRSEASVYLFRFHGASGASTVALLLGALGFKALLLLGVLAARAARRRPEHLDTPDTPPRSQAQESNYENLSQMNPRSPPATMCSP
Assay: flow cytometry on HEK293T-hu-S15 cells, detection with anti-human IgG (Fc specific)-FITC, average fluorescence intensity
VALUE KIND: EC50 (nM)

• 174C11C9 chimeric antibody (antibody, human IgG1, V domains shown, also called 174C11C9-mHL) VH: EVQLQQSGPVLVKPGASVKMSCEASGYIFTDYYMNWVKQSPGKSLEWIGVFNPYSGGISYNQKFKGKATLTVDTSSSTAYMELNSLTSEDSAVYYCARDYYYLSSHGFYALDYWGQGTSVTVSS VL: DIVLTQSPASLAVSLGQRATISCRASESVDSYGNSFIHWYQQRPGRPPKLLMYRASNLESGIPARFSGSGSRTDFTLTIDPVEADDVATYYCQQSNEDPLTFGAGTKLELK = 1.59
• 124B11F6 chimeric antibody (antibody, human IgG1, V domains shown, also called 124B11F6-mHL) VH: EVQLQQSGAELVRPGASVKLSCTASVFNIKDYYMHWVKQRTEQGLEWIGRIDPEDDKTKYAPKFQGKATITADTSSNTAYLHLSTLTSEDTAVYYCVRGWLGYIMDFWGQGTSVTVSS VL: QLVLTQSSSASFSLGASAKLTCTLSSQHSTYTIDWYQQQPLKPPKYVMELKEDGSHSTGDGIPDRFSGSSSGADRYLGISNIQPEDEAVYICGVGATIKEQFVYVFGGGTKVTVL = 9.44
• 75E1F2 chimeric antibody (antibody, V domains shown, Mouse variable regions combined with human IgG1 (N297A) constant regions) VH: EVQLVESGGGSVKPGGSLKLSCAASGFTFSDYGMHWVRQAPEKGLEWITYISSGSSIIDYSDTVKGRFTISRDNAKDTLFLQMTSLRSEDTAIYYCVRREDHYAMDYWGQGTSVTVSS VL: DIVMTQSHKFLSTSVGDRVSITCKASQDVYTAVAWFQQKPGQSPKLLFYSASYRFTGVPDRFNGSGSGTDFTLTITSMQAEDLAVYYCQQHYSTPWTFGGGTKLEIK = 1.88
